conditions: 293.15 K; 100 kPa
# viscosity per entry
The reply should be a number in mPa·s, with the unit left off.

See these solved cases before continuing.
{"COMPOUND": "C1CCCC1", "VALUE_KIND": "viscosity", "READOUT_VALUE": 0.428}
{"COMPOUND": "OCc1ccccc1", "VALUE_KIND": "viscosity", "READOUT_VALUE": 6.421}
{"COMPOUND": "CN1CCCC1=O", "VALUE_KIND": "viscosity", "READOUT_VALUE": 1.853}

We now examine a further compound.
The reported value for CCC(C)CC(C)C (centres undefined) in terms of viscosity is 0.476
